# tgt: binding of His-XIAP(BIR2)-avi fusion protein to GST-RIPK2 fusion protein (RIPK2/XIAP) (Homo sapiens, UniProt O43353)
# Construct: made in house; host or cells: baculovirus infected Sf9 cells
# assay-overview: RIPK2-XIAP binding competition PPI assay (TR-FRET)
# conditions: RIPK2/XIAP binding competition PPI assay, Amax; read-out: PPI Amax bin
So I've got a bunch of compounds here, and I need their Emax values.

Please look up its Emax: COc1cc2ncc(-c3cc(F)c(OC)c(NS(=O)(=O)c4cnn(C)c4)c3)n2cc1S(=O)(=O)C(C)(C)C [Example 135] > 80%

Please look up its Emax: COCC(C)(C)S(=O)(=O)c1cn2c(-c3cc(F)c(N)nc3F)cnc2cc1OC [Example 167] > 80%

Please look up its Emax: COc1cc2ncc(-c3cc(F)c(OC)c(NC(=O)Cc4ccn(C)n4)c3)n2cc1S(=O)(=O)C(C)(C)C [Example 298] 55 to 80%

Please look up its Emax: COc1cc2ncc(-c3cc(F)c(N)nc3F)n2cc1S(=O)(=O)C1(C)CCOCC1 [Example 72] > 80%

Please look up its Emax: C[C@H](CO)Oc1cc2ncc(-c3cc(F)c(N)nc3F)n2cc1S(=O)(=O)C(C)(C)C [Example 172] > 80%

Please look up its Emax: COc1cc2ncc(-c3cc(NS(=O)(=O)c4cnn(C)c4)c(OC)c(OC)c3)n2cc1N1CC2(COC2)CC1=O [Example 271] > 80%

Please look up its Emax: COc1cc2ncc(-c3cc(NS(=O)(=O)C4(CO)CC4)c(OC)c(OC)c3)n2cc1S(=O)(=O)C(C)(C)C [Example 178] > 80%

Please look up its Emax: CC(C)(C)S(=O)(=O)c1cn2c(-c3ccc4[nH]ccc4n3)cnc2cc1OCCO [Example 278] 30 to 55%

Please look up its Emax: CCCS(=O)(=O)Nc1cc(-c2cnc3cc(OC)c(C4(O)CCOCC4)cn23)cc(F)c1OC [Example 127] > 80%

Please look up its Emax: CC(F)(CO)COc1cc2ncc(-c3cc(F)c(N)nc3F)n2cc1S(=O)(=O)C(C)(C)C (single isomer, unassigned) [Example 260] > 80%

Please look up its Emax: COc1cc2ncc(-c3cc(F)c(OC)c(NS(=O)(=O)c4cc(C)ns4)c3)n2cc1S(=O)(=O)C(C)(C)C [Example 289] 30 to 55%

Please look up its Emax: C[C@H](O)COc1cn2ncc(-c3cc(Cl)c(N)nc3F)c2cc1S(=O)(=O)C(C)(C)C [Example 46] > 80%

Please look up its Emax: CC(C)(C)S(=O)(=O)c1cn2c(-c3cc(F)c(N)nc3F)cnc2cc1OCC(F)(F)CN [Example 202] > 80%

Please look up its Emax: COc1cc2ncc(-c3cc(F)c(N)nc3F)n2cc1C1(O)CCOCC1 [Example 75] > 80%

Please look up its Emax: CC(C)(C)S(=O)(=O)c1cn2c(-c3cnc4[nH]cnc4c3)cnc2cc1OCCO [Example 229] < 30%

----------
So I've got a bunch of compounds here, and I need their IC50 values.
# tgt: GST-RIPK2 fusion protein (human RIPK2, amino acids 1-310) (Homo sapiens)
# Construct: made in house; host or cells: baculovirus infected Sf9 cells
# Sequence (O43353 1-310): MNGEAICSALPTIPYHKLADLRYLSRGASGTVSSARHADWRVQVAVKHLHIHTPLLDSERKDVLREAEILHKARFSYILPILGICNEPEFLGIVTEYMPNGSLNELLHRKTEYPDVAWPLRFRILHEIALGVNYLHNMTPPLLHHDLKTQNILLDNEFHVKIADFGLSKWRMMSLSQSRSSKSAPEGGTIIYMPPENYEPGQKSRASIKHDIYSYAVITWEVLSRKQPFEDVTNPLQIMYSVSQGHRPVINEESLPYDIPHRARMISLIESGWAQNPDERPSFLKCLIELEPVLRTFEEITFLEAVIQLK
# assay-overview: RIPK2 binding competition assay (TR-FRET, Tracer 199 displacement)
# conditions: 10 nM Tracer 199, 1 nM GST-RIPK2, read-out: RIPK2 IC50

Please look up its IC50: COc1cc2ncc(-c3cccc(NS(=O)(=O)C4CCN(C(=O)OC(C)(C)C)CC4)c3)n2cc1S(=O)(=O)C(C)(C)C > 20 nM

Please look up its IC50: Cn1ccc(-c2cc3ncc(-c4cc(F)c(N)nc4F)n3cc2S(=O)(=O)C(C)(C)C)n1 > 20 nM

Please look up its IC50: COc1cc2ncc(-c3cc(F)c(OC)c(NS(=O)(=O)C4CCC4)c3)n2cc1S(=O)(=O)C(C)(C)C < 1 nM

Please look up its IC50: CC(C)(C)S(=O)(=O)c1cn2c(-c3cnc4[nH]cc(F)c4c3)cnc2cc1OCCO < 1 nM

Please look up its IC50: COc1cc2ncc(-c3cnn4ccccc34)n2cc1S(=O)(=O)C(C)(C)C > 20 nM

Please look up its IC50: CC(C)(C)S(=O)(=O)c1cn2c(-c3cc4cc[nH]c4cc3F)cnc2cc1OCCO < 1 nM

Please look up its IC50: CC(C)(C)S(=O)(=O)c1cn2c(-c3cc(F)c(N)nc3F)cnc2cc1-c1cc[nH]n1 > 20 nM

Please look up its IC50: COc1cc2ncc(-c3cnc4c(c3)CCCN4)n2cc1S(=O)(=O)C(C)(C)C > 20 nM

----------
# tgt: binding of His-XIAP(BIR2)-avi fusion protein to GST-RIPK2 fusion protein (RIPK2/XIAP) (Homo sapiens, UniProt O43353)
# Construct: made in house; host or cells: baculovirus infected Sf9 cells
# assay-overview: RIPK2-XIAP binding competition PPI assay (TR-FRET)
# conditions: RIPK2/XIAP binding competition PPI assay; read-out: PPI IC50 bin
observable: IC50

Please look up its IC50: COc1cc2ncc(-c3cc(F)c(N)nc3F)n2cc1S(=O)(=O)C(C)(C)Cn1cccn1 > 20 nM

Please look up its IC50: COc1cc2ncc(-c3cc(F)c(OC)c(NS(=O)(=O)C4CCC4)c3)n2cc1S(=O)(=O)C(C)(C)C < 1 nM

Please look up its IC50: CC(C)(C)S(=O)(=O)c1cn2c(-c3cc(F)c(N)nc3F)cnc2cc1OCC(F)CO (stereo not shown) 1 to 2.5 nM

Please look up its IC50: COc1cc2ncc(-c3cc(F)c(N)nc3F)n2cc1C1(OC)CCOCC1 > 20 nM

Please look up its IC50: COc1cc2ncc(-c3cnn4ncccc34)n2cc1S(=O)(=O)C(C)(C)C > 20 nM

Please look up its IC50: CCCS(=O)(=O)Nc1cc(-c2cnc3cc(OC)c(S(=O)(=O)C(C)(C)CO)cn23)cc(Cl)c1OC < 1 nM

Please look up its IC50: COc1cc2ncc(-c3cc(F)c(OC)c4c3cnn4CCO)n2cc1S(=O)(=O)C(C)(C)C > 20 nM

Please look up its IC50: COc1cc2ncc(-c3cc(F)c(OC)c(NS(=O)(=O)c4cn[nH]c4)c3)n2cc1C(F)(F)F 2.5 to 20 nM

Please look up its IC50: COc1cc2ncc(-c3cc(F)c(OC)c(NS(=O)(=O)c4cnn(C)c4)c3)n2cc1S(C)(=O)=O < 1 nM

Please look up its IC50: CCCS(=O)(=O)Nc1cc(-c2cnc3cc(OC)c(C(=O)N4CCNCC4)cn23)cc(F)c1OC 2.5 to 20 nM

Please look up its IC50: COc1cc2ncc(-c3cccc(NS(=O)(=O)C4CNC4)c3)n2cc1S(=O)(=O)C(C)(C)C > 20 nM

Please look up its IC50: CC(C)(C)S(=O)(=O)c1cn2c(-c3cc(F)c(N)nc3F)cnc2cc1OCC1(O)COC1 2.5 to 20 nM

Please look up its IC50: COc1cc2ncc(-c3ccc4c(N)noc4c3)n2cc1S(=O)(=O)C(C)(C)C > 20 nM

Please look up its IC50: C[C@@H](O)COc1cc2ncc(-c3cc(F)c(N)nc3F)n2cc1S(=O)(=O)C(C)(C)C 2.5 to 20 nM

Please look up its IC50: COc1c(F)cc(-c2cnc3cc(OC[C@@H](C)CO)c(S(=O)(=O)C(C)(C)C)cn23)cc1NS(C)(=O)=O < 1 nM

Please look up its IC50: COc1cc2ncc(-c3cc(F)c(OC)c(NC(=O)c4cnn(C)c4)c3)n2cc1S(=O)(=O)C(C)(C)C > 20 nM

----------
# tgt: binding of His-XIAP(BIR2)-avi fusion protein to GST-RIPK2 fusion protein (RIPK2/XIAP) (Homo sapiens)
# Construct: made in house; host or cells: baculovirus infected Sf9 cells
# assay-overview: RIPK2-XIAP binding competition PPI assay (TR-FRET)
# conditions: RIPK2/XIAP binding competition PPI assay, Amax; read-out: PPI Amax bin
# Excerpt: The ability of selected compounds of Formula (I) to inhibit the binding of an His-XIAP(BIR2)-avi fusion protein to a GST-RIPK2 fusion protein was quantified employing the TR-FRET-based competition assay as described in the following paragraphs. […]
observable: Emax

Please look up its Emax: COc1cc2ncc(-c3cccc(NS(=O)(=O)C4COC4)c3)n2cc1S(=O)(=O)C(C)(C)C > 80%

Please look up its Emax: COc1cc2ncc(-c3cc(F)c(OC)c4[nH]c(C)nc34)n2cc1S(=O)(=O)C(C)(C)C 55 to 80%

Please look up its Emax: CCOc1cc2ncc(-c3cc4cc[nH]c4nc3F)n2cc1S(=O)(=O)C(C)C > 80%

Please look up its Emax: COc1cc2ncc(-c3cn(C)c4ncccc34)n2cc1S(=O)(=O)C(C)(C)C < 30%

Please look up its Emax: COc1cc2ncc(-c3ccc4c(c3)nc(N)n4C)n2cc1S(=O)(=O)C(C)(C)C 55 to 80%

Please look up its Emax: CCS(=O)(=O)Nc1cc(-c2cnc3cc(OC[C@@H](C)O)c(S(=O)(=O)C(C)(C)C)cn23)cc(F)c1OC > 80%

Please look up its Emax: C[C@H](CO)COc1cc2ncc(-c3cc(Cl)c(N)nc3F)n2cc1S(=O)(=O)C(C)(C)C > 80%

Please look up its Emax: CC(C)(C)S(=O)(=O)c1cn2c(-c3cc(F)c(N)nc3F)cnc2cc1OCC1COC1 > 80%
